measurementTarget: GABA transporter 4 (Mus musculus)
Sequence (P31650 whole entry): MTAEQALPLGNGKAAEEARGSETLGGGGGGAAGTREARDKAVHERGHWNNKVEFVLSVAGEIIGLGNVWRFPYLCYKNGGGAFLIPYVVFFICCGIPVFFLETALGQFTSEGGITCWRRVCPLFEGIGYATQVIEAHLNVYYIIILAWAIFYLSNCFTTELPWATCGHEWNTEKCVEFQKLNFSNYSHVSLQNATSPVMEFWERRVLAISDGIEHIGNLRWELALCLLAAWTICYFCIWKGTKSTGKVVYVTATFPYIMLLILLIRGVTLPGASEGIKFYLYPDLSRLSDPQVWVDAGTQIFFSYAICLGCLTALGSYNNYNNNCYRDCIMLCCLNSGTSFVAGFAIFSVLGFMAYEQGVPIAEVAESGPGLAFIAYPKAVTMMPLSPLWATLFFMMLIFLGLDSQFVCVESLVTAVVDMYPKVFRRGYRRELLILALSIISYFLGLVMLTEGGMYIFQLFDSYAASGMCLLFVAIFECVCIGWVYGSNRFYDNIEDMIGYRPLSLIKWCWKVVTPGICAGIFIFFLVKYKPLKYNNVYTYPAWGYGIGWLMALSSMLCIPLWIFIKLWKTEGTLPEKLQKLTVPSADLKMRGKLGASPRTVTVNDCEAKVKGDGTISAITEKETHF
assayRemarks: Inhibition of mouse GAT4 expressed in HEK293 cell line assessed as inhibition of [3H]GABA uptake measured after 35 mins by liquid scintillation method
Type: cell-based
Reported values of pIC50 for individual entries
A value of pIC50 is the negative decimal logarithm of a concentration given in moles per litre.

// known answers, use as guide
Cc1ccsc1C(=CCCN(C)C(CC(C)O)C(=O)NCc1ccc(F)cc1)c1sccc1C (racemic; form 2); 4.53
Cc1ccsc1C(=CCCN(C)C(CCO)C(=O)N1CCOCC1)c1sccc1C (stereo not drawn); 4.48

Now let's try a different one.
What does the record list as pIC50 for Cc1ccsc1C(=CCCN(C)C(CCO)C(=O)NCc1ccccc1)c1sccc1C (stereo not drawn) ?
4.99

Measured values drawn from ChEMBL document CHEMBL4765247 for this set.
